System: SK-MEL-2 melanoma
Experiment: NCI-60 one-dose screen, 48 h (100 = growth as untreated, 0 = no growth, -100 = all killed)
Conditions: 10 µM unless noted
This is part of a sample that, as a whole, favours compounds with a hit. Of some 83,000 tested, about 20% had one in any assay.
Everything with growth lower than 50% is Not fulfilled; everything else, including exactly 50%, is Fulfilled.

* Cn1c(=O)c2c(-c3ccccc3F)n(-c3ccc4c(c3)OCO4)cc2n(C)c1=O | Fulfilled
* Cc1nn2c(-c3nc4ccc(Cl)cc4[nH]3)c(-c3ccc(F)cc3)nc2s1 | Fulfilled
* CCN(C(=O)c1ccc2c3c(cccc13)C=C2)c1ccccc1 | Fulfilled

# ---- query compound ----
Input line: Quick check: does Cl.Fc1c[c-]c(-c2ccccn2)c(F)c1.[Pt].c1ccc([PH+](CC[PH+](c2ccccc2)c2ccccc2)c2ccccc2)cc1 have growth greater than or equal to 50%?
Output line: Not fulfilled

----------
The reader will find reported growth values listed item by item below.
System: NCI-H23 lung
Assay: NCI-60 one-dose screen, 48 h (100 = growth as untreated, 0 = no growth, -100 = all killed)
Details: 10 µM unless noted
This is part of a sample that, as a whole, favours compounds with a hit. Of some 83,000 tested, about 20% had one in any assay. Active and inactive are the calls of the source. The calls were made as follows: active = growth percent below 10; inactive = the rest.

* Cc1cc(=O)[nH]n1-c1cc(Cl)ccc1N | 107% (inactive)
* CC(C)(C)[Si](C)(C)OC1[C@@H](CNC(=O)NC(=O)CCl)O[C@@H](n2cnc3c(N)ncnc32)[C@H]1O[Si](C)(C)C(C)(C)C (some centres not stated) | -72.4% (active)
* O=c1[nH]c(=O)n(Cc2ccc(F)cc2)cc1F | 105% [50 µM] (inactive)
* CC(=O)OC[C@H](O)[C@@]1(O)CC[C@H]2[C@@H]3CCC4=CC(=O)CC[C@]4(C)[C@H]3[C@@H](O)C[C@@]21C | 103% (inactive)
* COc1cc(/C=C/C(=O)C(=Cc2ccc(F)c(F)c2)C(=O)/C=C/c2ccc(O)c(OC)c2)ccc1O | -24.6% (active)
* O=C(NC1CC1)c1cc2n(n1)CC(c1ccccc1)N2 (configuration not stated) | 100% (inactive)
* COCCOC1=C(Cl)C(=O)c2ccccc2C1=O | 29% (inactive)
* O=C1N/C(=C\c2ccccc2)c2ncccc21 | 95% (inactive)

Input line: Please report the recorded growth for COc1ncnc2c1ncn2C/C(Br)=C(\Br)CCl .
Output line: 15.1% (inactive)

Input line: Also check COc1cc2cc(Oc3ccc(NC(=O)Nc4ccc(Cl)c(C(F)(F)F)c4)cc3)c(C)nc2cc1OCCN1CCCCC1
Output line: -80.4% (active)

Input line: Also check O=C(Nc1nc2ccccc2[nH]1)C(=O)Nc1nc2ccccc2[nH]1
Output line: 89.6% (inactive)

Input line: Also check O=C(N/N=C/c1ccc2c(c1)OCO2)c1cnn2c1NC(c1ccccc1)C2 (configuration not stated)
Output line: 57.1% (inactive)

Input line: Also check COc1cc(/C=C2\C(=O)N(c3c(Cl)cccc3Cl)c3ccccc32)cc(OC)c1O
Output line: 48.1% (inactive)

Input line: Also check COC(=O)c1c2c(c(C)[n+]([O-])c1C)C(=O)C=C(NCc1ccc(F)cc1)C2=O
Output line: -46.2% (active)

----------
The reader will find reported growth values listed item by item below.
Tested on: NCI-H522 lung
Experiment: NCI-60 one-dose screen, 48 h (100 = growth as untreated, 0 = no growth, -100 = all killed)
Settings: 10 µM
About 83,000 compounds went through this panel and 20% of them were active in at least one assay; those are over-represented in the sample as a whole.
Give the value, in units of %, as a plain number.

Worked examples, 6 compounds total:
* Cc1nc2ccc(Cl)cc2n1C | 90.2
* O=C1CC2c3cc(-c4cc5ccccc5o4)ccc3CCN2C(=O)N1c1ccccc1 (stereo not drawn) | 69.9
* Clc1ccc2c(N3CCN(c4ccnc(NC5CCCCC5)n4)CC3)ccnc2c1 | 71.3
* Cc1nc2cc(Nc3nc(N4CCOCC4)nc(N4CCN(C)CC4)n3)ccc2n1Cc1ccccc1 | 92.6
* Clc1ccc(C2=NN(c3ccccc3)[C@H](c3cn(-c4ccccc4)nc3-c3ccccc3)C2)cc1 | 91.5
* O=C1NC(=S)S/C1=C\c1cccc([N+](=O)[O-])c1 | 107

Input line: Please report the recorded growth for COc1ccc(/C=C2\SC(=O)N(CN3CCN(c4cc5c(cc4F)c(=O)c(C(=O)O)cn5C4CC4)CC3)C2=O)cc1 .
Output line: 94.2

Input line: Also check Cc1cc(O)cc2c1[C@H]1CC[C@]3(C)[C@@H](O)CC[C@H]3[C@@H]1C=C2
Output line: 43.2

----------
Test system: SK-MEL-5 melanoma
Assay: NCI-60 one-dose screen, 48 h
Conditions: 10 µM unless noted
Compounds without any hit were thinned out: in the full panel of roughly 83,000, 20% have a hit. Activity calls are given as the source filed them. Rule for the calls: active = growth percent below 10; inactive = the rest.
# valid calls are active, inactive; nothing else

* COCCOC1=C(Cl)C(=O)c2ccccc2C1=O | active

Input line: // return assay outcome for COc1ccc(-c2nn(-c3ccc(NC(=O)c4ccc(Cl)c(Cl)c4)cc3)cc2-c2ccncc2)cc1Cl
Output line: active

Input line: Also check CCOC(=O)c1cc2c(n(C)c1=O)-c1cnn(-c3ccc(OC)cc3)c1CC2
Output line: inactive

Input line: Also check COc1ccc(CSc2nc3cc(OC)c(OC)cc3c(=O)n2-c2ccc(Cl)cc2)cc1
Output line: inactive

----------
System: SF-539 CNS
Test: NCI-60 one-dose screen, 48 h (100 = growth as untreated, 0 = no growth, -100 = all killed)
Settings: 10 µM unless noted
The panel holds about 83,000 compounds, 20% with a hit somewhere; the sample as a whole holds those more often.
assay-readout: growth (%)
Give the value, in units of %, as a plain number.

Worked examples, 4 compounds total:
* COc1cc(-c2ccc3cc(OC)c(OC)c(OC)c3c2)cc(OC)c1OC | 79.3
* CCOC(=O)c1cn2c3c(cc(F)cc3c1=O)C(CC)c1ccccc1C2 (stereo not drawn) | 97.5
* CON=C1C[C@]2(C[C@@H]3C[C@@H](C/C=C(\C)C[C@@H](C)/C=C/C=C4\CO[C@@H]5[C@H](O)C(C)=C[C@@H](C(=O)O3)[C@]45O)O2)O[C@H](/C(C)=C/C(C)C)[C@H]1C | 85.1
* Cn1cc(C(=O)NCCC(=N)N)cc1NC(=O)CN=C(N)N | 104

Input line: For the record O=C(O)c1ccccc1Oc1cc(-c2ccco2)nc(OCCBr)n1 , what value of growth is listed for SF-539 CNS?
Output line: 105

Input line: Also check Cc1ccc(N=c2nc3sc4c(C)ccc(C)c4n3c(N)c2C#N)cc1
Output line: 99.1

Input line: Also check FC(F)(F)c1cc(CNc2ncc(Br)c(Cl)n2)cc(C(F)(F)F)c1
Output line: 97

Input line: Also check O=[N+]([O-])c1ccc2nc(N/N=C/c3ccc(O)cc3)sc2c1
Output line: 49.5

----------
Tested on: A549/ATCC NSCLC
Assay: NCI-60 one-dose screen, 48 h
Conditions: 10 µM unless noted
This is part of a sample that, as a whole, favours compounds with a hit. Of some 83,000 tested, about 20% had one in any assay. Active and inactive are the calls of the source. Rule for the calls: active = growth percent below 10; inactive = the rest.
# valid calls are T for active, F for inactive; nothing else

The examples below pair each entry with its known result.
* COc1ccc(C2SC(C)C(=O)N2CCc2cccs2)cc1OC (stereo not drawn) | F
* COc1cc(C2C3=C(COC3=O)N(CCO)c3cc4c(cc32)OCO4)cc(OC)c1O (stereo not drawn) | F
* COc1ccc(/C=N/NC(=O)c2cnn(CC(O)Cc3ccccc3)c2N)cc1OC1CCCC1 (stereo not drawn) | F
* COc1cccc(C2CC(=O)Nc3cc4c(cc32)CCC4)c1OC (stereo not drawn) | F
* COc1cc(/C=C/c2cc(/C=C/c3ccc(O)c(OC)c3)n(-c3ccccc3)n2)ccc1O | T

# ---- query compound ----
Input line: // return assay outcome for Nc1cccc2c(=S)c3ccccc3[nH]c12
Output line: F

----------
System: UACC-257 melanoma
Experiment: NCI-60 one-dose screen, 48 h (100 = growth as untreated, 0 = no growth, -100 = all killed)
Conditions: 10 µM unless noted
Compounds without any hit were thinned out: in the full panel of roughly 83,000, 20% have a hit.
assay-readout: growth (%)
Give the value, in units of %, as a plain number.

Input line: Please report the recorded growth for CCOC(=O)c1sc(NC(=O)CN2CCC(Cc3ccccc3)CC2)nc1C .
Output line: 127

Input line: Also check C=C1CC[C@@H]2[C@@](C)(CCC[C@]2(C)C(=O)O)[C@@H]1CC[C@H](CO)CCO
Output line: 109

Input line: Also check OB(O)c1ccccc1
Output line: 99.4

Input line: Also check O=C1c2ccccc2-c2cn(Cc3ccccc3)c3cccc(c23)C1c1cccnc1 (configuration not stated)
Output line: 55

Input line: Also check COc1ccc(C2=NOC(CC(=O)N(CCO)CCO)C2)cc1OC1CCCC1 (configuration not stated)
Output line: 102

Input line: Also check O=C(Nc1nc2ccccc2[nH]1)C(=O)Nc1nc2ccccc2[nH]1
Output line: 101

Input line: Also check COCCOC1=C(Cl)C(=O)c2ccccc2C1=O
Output line: -17.3

Input line: Also check CC1(C)N=C(N)N=C(N)N1c1cccc(/C=C/C=C/c2cccc([N+](=O)[O-])c2)c1
Output line: 41.4

Input line: Also check COc1ccc(-c2nc3sc(C)cn3c2/C=C/C(=O)c2cc(OC)c(OC)c(OC)c2)cc1
Output line: 50.8

Input line: Also check N#CCCN1CCN(CCC#N)C1=S
Output line: 99.8

Input line: Also check Cc1nc2cc(Nc3nc(Nc4ccc(F)cc4)nc(N4CCCC4)n3)ccc2n1Cc1ccccc1
Output line: -22.7

Input line: Also check O=C1CCC(N2Cc3c(C#CCCCNC(=O)c4cc5c(o4)C(=O)c4ccccc4C5=O)cccc3C2=O)C(=O)N1 (configuration not stated)
Output line: -79

Input line: Also check COC(=O)CCC(=O)c1ccccc1
Output line: 106

Input line: Also check Cn1cc(C(=O)NCCC(=N)N)cc1NC(=O)CN=C(N)N
Output line: 99.9

Input line: Also check CCN(CC)CCCNc1ccc(C)c2sc3ccccc3c(=O)c12
Output line: -61.3

Input line: Also check O=C(c1ccccc1)C(Br)C(Br)c1cccc([N+](=O)[O-])c1 (configuration not stated)
Output line: 19.8

Input line: Also check COC(=O)c1ccc(C(=O)Nc2ccccc2N)cc1
Output line: 75.7

Input line: Also check Cc1nc2cc(Nc3nc(NCCN)nc(Nc4ccc(F)cc4)n3)ccc2n1Cc1ccccc1
Output line: 90.5

Input line: Also check CCCCC1COc2cccc3c(SCC(=O)N(C)c4cccc5ccccc45)cc[n+]1c23 (configuration not stated)
Output line: 101
